Hello, the source for this data is patent US20260226031A1, in case you need it.

System: mPTP
Experiment: mPTP activity (Ca2+ retention) assay in isolated rat liver mitochondria
Format: biochemical
Details: isolated rat liver mitochondria; Fluo5N fluorescence at 10 min after CaCl2 (75 μM) bolus; DMSO 0%, 5 μM cyclosporin A 100% inhibition
parameter: mPTP Rat liver pIC50*

compound="O=C(c1cncc(=O)[nH]1)N1CC(c2ccc(Cl)cc2)C2(CCC2)C1 (single isomer, unassigned) [Example 16a]" modifier== meas_value=5.58
compound="O=C(c1cncc(=O)[nH]1)N1CC(c2cccc(Cl)c2F)C2(CCC2)C1 (single isomer, unassigned) [Example 33a]" modifier== meas_value=5.77
compound="CC1(C)CN(C(=O)c2cncc(O)c2)CC1c1ccccc1 (stereo not shown)" modifier== meas_value=5.47
compound="O=C(c1cc(O)no1)N1CC(c2ccc(F)cc2F)C2(CCC2)C1 (single isomer, unassigned) [Example 42a]" modifier== meas_value=6.26
compound="O=C(c1noc(=O)[nH]1)N1CC(c2ccccc2)C2(CCC2)C1 (single isomer, unassigned) [Example 34a]" modifier== meas_value=5.57
compound="O=C(c1nccc(=O)[nH]1)N1CC(c2ccccc2)C2(CC(F)C2)C1 (single isomer, unassigned) [Example 25d]" modifier=< meas_value=4.52
compound="COc1ccc(C2CN(C(=O)c3cncc(=O)[nH]3)CC23CCC3)cc1 (single isomer, unassigned) [Example 28a]" modifier== meas_value=5.17
